- Tested on: SF-268 CNS
- experiment: NCI-60 one-dose screen, 48 h
- assay conditions: 10 µM unless noted
This is part of a sample that, as a whole, favours compounds with a hit. Of some 83,000 tested, about 20% had one in any assay. Activity calls are given as the source filed them. How the source made its calls: active means growth percent below 10; inactive means the rest.
Pick one: true (1) = active, false (0) = inactive

Given CC[C@]1(O)CC2CN(CCc3c([nH]c4ccccc34)C(C(=O)OC)(c3cc4c(cc3OC)N(C=O)[C@H]3[C@@](O)(C(=O)OC)[C@H](OC(C)=O)[C@]5(CC)[C@@H]6C[C@@H]6CN6CC[C@]43[C@@H]65)C2)C1 (some centres not stated) , state the outcome it received in this test.
false (0)

Given Cc1ccc(-c2nc3nc(-c4ccc(Cl)cc4)nc(N4CCCNCC4)c3o2)cc1 , state the outcome it received in this test.
false (0)

Given COc1ccc2nc3cc(Cl)ccc3c(NCCCNCCC(C)O)c2c1 (configuration not stated) , state the outcome it received in this test.
true (1)

Given [2H]C([2H])([2H])Oc1cccc(/C=C/C(=O)/C=C(/C=C/c2cccc(OC([2H])([2H])[2H])c2OC([2H])([2H])[2H])OB(F)F)c1OC([2H])([2H])[2H] , state the outcome it received in this test.
false (0)

Given Nc1ccc(/C=N/Nc2ccnc3c(N)cccc23)c2cccnc12 , state the outcome it received in this test.
true (1)

Given O=[N+]([O-])c1cc(C(F)(F)F)ccc1Sc1ccc(C(F)(F)F)cc1[N+](=O)[O-] , state the outcome it received in this test.
false (0)

Could you now look at the following compound, please?
Given CN1CCN(Cc2ccc(NC(=O)c3cccc(C#Cc4c(N)ncc5ccc(F)cc45)c3)cc2C(F)(F)F)CC1 , state the outcome it received in this test.
true (1)

====

- Tested on: MALME-3M melanoma
- experiment: NCI-60 one-dose screen, 48 h (100 = growth as untreated, 0 = no growth, -100 = all killed)
- assay conditions: 10 µM unless noted
This is part of a sample that, as a whole, favours compounds with a hit. Of some 83,000 tested, about 20% had one in any assay.
Response key: MET means growth >= 50%; NOT MET means growth < 50%.

Has C=C(CNCCc1ccc(O)cc1)[C@@H]1CC[C@]2(CO)CC[C@]3(C)[C@H](CC[C@@H]4[C@@]5(C)CCC(NCCc6ccc(O)cc6)C(C)(C)[C@@H]5CC[C@]43C)[C@@H]12 (some centres not stated) a recorded growth greater than or equal to 50%?
NOT MET

Has O=C1C(N2CCOCC2)=C(I)C(=O)c2ncccc21 a recorded growth greater than or equal to 50%?
MET

Has COc1cc(/C=N/NC(=O)CCN2c3ccccc3Sc3ccccc32)cc(OC)c1OC a recorded growth greater than or equal to 50%?
MET

Has Cc1ccc(NC(=O)N/C(N)=N/c2nc(=O)c3ccccc3s2)cc1 a recorded growth greater than or equal to 50%?
MET

Has CC[C@]1(O)CC2CN(CCc3c([nH]c4ccccc34)C(C(=O)OC)(c3cc4c(cc3OC)N(C=O)[C@H]3[C@@](O)(C(=O)OC)[C@H](OC(C)=O)[C@]5(CC)[C@@H]6C[C@@H]6CN6CC[C@]43[C@@H]65)C2)C1 (some centres not stated) a recorded growth greater than or equal to 50%?
NOT MET

Has Nc1nc(N)c2c(n1)NC(c1cccc(Nc3ccnc4cc(C(F)(F)F)ccc34)c1)CC(c1ccc(F)cc1)=N2 (configuration not stated) a recorded growth greater than or equal to 50%?
MET

====

- Test system: CCRF-CEM leukemia
- experiment: NCI-60 one-dose screen, 48 h (100 = growth as untreated, 0 = no growth, -100 = all killed)
- assay conditions: 10 µM unless noted
Compounds without any hit were thinned out: in the full panel of roughly 83,000, 20% have a hit.
Examples of compounds with documented growth follow.
Unit % implied. Number only.

// lookup growth for O=C1/C(=C/c2cn(-c3ccccc3)nc2-c2ccccc2)SC(=S)N1c1ccc(Cl)cc1
54

Others:
// lookup growth for COc1cc(/C=C/C(=O)c2ccc(NC(=O)CSc3nnc(-c4cc(-c5ccccc5)nc5ccccc45)n3-c3ccccc3)cc2)cc(OC)c1OC
84.2

// lookup growth for O=C(Nc1ccc(F)cc1)c1cc2cc(Nc3nc(-c4ccccc4)nc4ccccc34)ccc2oc1=O
106

// lookup growth for COCCOc1cc2ncnc(N3CCN(S(=O)(=O)c4ccccc4Cl)CC3)c2cc1OCCOC
79

====

- Test system: SNB-19 CNS
- experiment: NCI-60 one-dose screen, 48 h (100 = growth as untreated, 0 = no growth, -100 = all killed)
- assay conditions: 10 µM unless noted
This is part of a sample that, as a whole, favours compounds with a hit. Of some 83,000 tested, about 20% had one in any assay. Activity calls are given as the source filed them. Rule for the calls: active = growth percent below 10; inactive = the rest.
endpoint label: growth

Consider the reported growth for these molecules:
// lookup growth for COc1cc(/C=C2\C(=O)N(CCCCn3c4ccccc4c(=O)c4ccccc43)c3ccccc32)cc(OC)c1O
62.7% (inactive)

// lookup growth for CC(=NCc1ccccc1)c1ccc(O)cc1O
103% (inactive)

// lookup growth for CCN1CCN(CC(=O)Nc2nc3ccc(NCc4ccc(C)cc4)cc3s2)CC1
81.6% (inactive)

// lookup growth for COCCOc1cc2ncnc(N3CCN(S(=O)(=O)c4ccccc4Cl)CC3)c2cc1OCCOC
86.1% (inactive)

// lookup growth for Clc1cccc(Nc2ncnc3ccc(-c4cncc(-n5cnnn5)c4)cc23)c1
79.5% (inactive)

// lookup growth for COc1ccc(C2Nc3nc(SC)nc(N)c3N=C3c4ccccc4CCC32)cc1 (configuration not stated)
104% (inactive)

// lookup growth for COc1cc(-c2nc(SCCC(C)C)nc(Nc3ccc(F)cc3)c2C#N)cc(OC)c1OC
45.5% (inactive)

// lookup growth for Cn1ccnc1CN1CCSC(C(=O)Nc2ccccc2)C1 (configuration not stated)
93% (inactive)

Others:
// lookup growth for CCOC(=O)C1=C(C)N=C2SC=C(c3ccc(F)cc3)N2[C@H]1c1cn(-c2ccccc2)nc1-c1ccc(Cl)cc1
92.1% (inactive)

// lookup growth for CCn1cc(C(=O)NN=C2CCCC2)c(=O)c2ccc(C)nc21
96.6% (inactive)

// lookup growth for C=C(C)[C@@H]1CC[C@]2(C(=O)N3CCN(C)CC3)CC[C@]3(C)[C@H](CC[C@@H]4[C@@]5(C)CC(CCCNC(C)=O)(CCCNC(C)=O)[C@H](OC(C)=O)C(C)(C)[C@@H]5CC[C@]43C)[C@@H]12
99% (inactive)

// lookup growth for C#CCOc1cccc(Nc2ncc3ncn(C4CCN(C(=O)CCl)C4)c3n2)c1 (configuration not stated)
64.6% [6.25 µM] (inactive)

// lookup growth for Cc1ccc(C(=O)N(CCCN)[C@@H](c2nc3cc(Cl)ccc3c(=O)n2Cc2ccccc2)C(C)C)cc1
5.11% (active)

====

- System: HCT-15 colon
- experiment: NCI-60 one-dose screen, 48 h
- assay conditions: 10 µM unless noted
The panel holds about 83,000 compounds, 20% with a hit somewhere; the sample as a whole holds those more often. Activity calls are given as the source filed them. How the source made its calls: active means growth percent below 10; inactive means the rest.
Pick one: yes for active, no for inactive

Previously resolved entries follow.
Given COc1cc(/C=C2\C(=O)N(CCCCn3c4ccccc4c(=O)c4ccccc43)c3ccccc32)cc(OC)c1O , state the outcome it received in this test.
no

Given N#C/C(=C\c1ccccc1Cl)c1cc2ccccc2[nH]1 , state the outcome it received in this test.
no

Given Cc1ccc(/C=C2\COc3ccc(O)c(O)c3C2=O)cc1 , state the outcome it received in this test.
yes

Could you now look at the following molecule, please?
Given O=C(CN1C(=O)S/C(=C\C(Cl)=C\c2ccccc2)C1=O)NC1C=CS(=O)(=O)C1 (stereo not given) , state the outcome it received in this test.
yes

====

- System: UO-31 renal
- experiment: NCI-60 one-dose screen, 48 h (100 = growth as untreated, 0 = no growth, -100 = all killed)
- assay conditions: 10 µM unless noted
This is part of a sample that, as a whole, favours compounds with a hit. Of some 83,000 tested, about 20% had one in any assay.
endpoint label: growth (%)
Unit % implied. Number only.

Consider the reported growth for these molecules:
// lookup growth for COc1ccc(C(c2cc(OC)c(OC)c(OC)c2)n2ccnc2)cc1O (stereo not given)
62

// lookup growth for COc1nc2ccc(C)cc2cc1/C=[N+](\[O-])c1ccccc1
59.4

// lookup growth for Cc1c(O)c(O)cc2c3c(oc12)CC(c1ccc2c(c1)OCO2)CC3=O (stereo not given)
56

// lookup growth for CCNC(=S)n1nc(SC)c(C(=O)OCC)c1N
77.8

// lookup growth for COc1ccc(-c2nnc3n(C)c(=O)c4ccccc4n23)cc1O
52.7

// lookup growth for O=C1C(=C(O)c2ccccc2)C(=O)c2ccccc21
85.5

Others:
// lookup growth for C=C1C(=O)O[C@H]2[C@H]1CC/C(CNS(=O)(=O)c1ccc3ccccc3c1)=C\CC[C@@]1(C)O[C@@H]21
-88

// lookup growth for COc1ccc2c(c1)c(C(=O)c1nc(-c3cn(C)c4ccccc34)no1)cn2C
77.2

// lookup growth for COc1ccc(/C=C2\COc3ccc(O)c(O)c3C2=O)c(OC)c1OC
-5.7

// lookup growth for NS(=O)(=O)c1ccc(C(=O)N=Nc2c(O)[nH]c3c(F)cccc23)cc1
76.4
